Reference source for all entries: the RNAGym collection of RNA variant scans (doi:10.7554/elife.80360)

B1: Twister Ribozyme (parent)
chain: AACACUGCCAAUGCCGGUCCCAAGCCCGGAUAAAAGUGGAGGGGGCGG

# Variants of: B1
# experiment: self-cleavage, relative activity (ratio to wild type); higher = more cleavage; co-transcriptional
measured.endpoint: self-cleavage
No unit in the answer, please; the number alone is enough.

Some variants with known self-cleavage results, for comparison:
{"columns": ["sequence.entry", "number"],
 "data": [
  ["AACACUGCUAAUGCCAGUCCCAAGCCCGGAUAAAAGUGGAGGGGGCGG [C9U G16A]", 0.405],
  ["AACAGUGCCAAUGCCGGUCCCAAGGCCGGAUAAAAGUGGAGGGGGCGG [C5G C25G]", 0.0808],
  ["AACACUGCCAAUGCCGGUCUCAAGCCCGGAUAAAUGUGGAGGGGGCGG [C20U A35U]", 1.08],
  ["AACACUGCCAAUGCCGGUCCCAACCCCGGAUAAAAGUGGAUGGGGCGG [G24C G41U]", 0.0978],
  ["AACACUCCCAAUGCCGGUCCCAAGCCCGGAUAAAAGUGGAGGGGGGGG [G7C C46G]", 0.0721],
  ["AACACUGCCAAUGCCGGUCCCAAGCCCGGAUUACAGUGGAGGGGGCGG [A32U A34C]", 0.231],
  ["AACACUGCCUAUGCCGGUCCCAAGCCCGGAUAAAAGUGGAGAGGGCGG [A10U G42A]", 0.489],
  ["AACACCGCCAAUGCCGGUCCCAAGCCCGGAUCAAAGUGGAGGGGGCGG [U6C A32C]", 0.349],
  ["AACACUGCCAAUGCCGGUCCCAAGCCCGAAUAAAAGUGGAGUGGGCGG [G29A G42U]", 0.323],
  ["AAAACUGCCAAUGCCGGUCCCAACCCCGGAUAAAAGUGGAGGGGGCGG [C3A G24C]", 0.0654]
]}

# variant AACACUGCCAAUCCCGGUCCCAAGCCCGAAUAAAAGUGGAGGGGGCGG [G13C G29A] ; its self-cleavage = 0.411

Record AACACUGCCAAUGCCGGACCCAAGCCCGGAUAAAAGUGGAGGGGGCGU [U18A G48U] , field self-cleavage: 0.419

Per the record, AACACUGCCAAUGCCGGUCCCAAGUCCGGAUAAAAGUGGAGGUGGCGG [C25U G43U] has self-cleavage of 0.182

Query AACACUGCCAAUGCCUGCCCCAAGCCCGGAUAAAAGUGGAGGGGGCGG [G16U U18C] yields self-cleavage of 0.351

Lab note: AACACUGCCAAUGCCGGUCCCAAGGCCGGAUAAAAGUGGAGGGGGCUG [C25G G47U] gave self-cleavage of 0.155

The variant AACACUACGAAUGCCGGUCCCAAGCCCGGAUAAAAGUGGAGGGGGCGG [G7A C9G] showed self-cleavage equal to 0.0915
